system: Sweetpotato Whitefly-Crawler (Bemisia tabaci); experiment: Insecticidal test for Sweetpotato Whitefly-Crawler (WF) (BEMITA) in foliar spray assay on cotton plants; format: in vivo; details: 216 h, 200 ppm foliar spray, graded after 9 days, Abbott corrected % control, read-out: % Control (or Mortality) rating, WF
MEASURED PARAMETER: mortality at 200 ppm

> print(dat)
                                    molecule    observed
 1  CCN(C(=O)CC[S+]([O-])CCC(F)(F)F)c1cn(-c2cc(F)c[n+]([O-])c2)nc1Cl (centres unmarked)  80 to 100%
 2  CCN(C(=O)C(C)CSCCC(F)(F)F)c1cn(-c2cc(F)c[n+]([O-])c2)nc1Cl (centres unmarked)  80 to 100%
 3  CN(C(=O)CCSCC1CC1(F)F)c1cn(-c2ccc[n+]([O-])c2)nc1Cl (centres unmarked)  80 to 100%
 4  CCN(C(=O)C(C)C[S+]([O-])CCC(F)(F)F)c1cn(-c2cc(F)c[n+]([O-])c2)nc1Cl (centres unmarked)  80 to 100%
 5           CNc1cn(-c2ccc[n+]([O-])c2)nc1Cl    0 to 80%
 6  C#CCN(C(=O)CC[S+]([O-])CCC(F)(F)F)c1cn(-c2ccc[n+]([O-])c2)nc1Cl (centres unmarked)  80 to 100%
 7  CN(C(=O)CCSCCC(F)(F)F)c1cn(-c2ccc[n+]([O-])c2)nc1Cl [Compound P1]  80 to 100%
 8  CCN(C(=O)C(C)CSCCC(F)(F)F)c1cn(-c2ccc[n+]([O-])c2)nc1C (centres unmarked)  80 to 100%
 9  CN(C(=O)CC[S+]([O-])CC1CC1(F)F)c1cn(-c2ccc[n+]([O-])c2)nc1Cl (centres unmarked)  80 to 100%
10  CCN(C(=O)CCSCCCC(F)(F)F)c1cn(-c2ccc[n+]([O-])c2)nc1C  80 to 100%
11  CCN(C(=O)CC[S+]([O-])CCCC(F)(F)F)c1cn(-c2ccc[n+]([O-])c2)nc1Cl (centres unmarked)  80 to 100%
12  CCN(C(=O)CS(C)(=O)=O)c1cn(-c2ccc[n+]([O-])c2)nc1Cl    0 to 80%
13        C#CCNc1cn(-c2ccc[n+]([O-])c2)nc1Cl    0 to 80%
14  CCN(C(=O)CCSCCCC(F)(F)F)c1cn(-c2cc(F)c[n+]([O-])c2)nc1Cl  80 to 100%
15  C#CCN(C(=O)CCSCC1CC1(F)F)c1cn(-c2ccc[n+]([O-])c2)nc1Cl (centres unmarked)  80 to 100%
16  CCN(C(=O)C(C)C[S+]([O-])CCC(F)(F)F)c1cn(-c2ccc[n+]([O-])c2)nc1Cl (centres unmarked)  80 to 100%
17          CCNc1cn(-c2ccc[n+]([O-])c2)nc1Cl    0 to 80%
